Just for reference, ChEMBL document CHEMBL1148764 is where these values come from.

TARGET_OR_TEST_SYSTEM: CYP2C9 (Homo sapiens, UniProt P11712)
Sequence (P11712 whole entry): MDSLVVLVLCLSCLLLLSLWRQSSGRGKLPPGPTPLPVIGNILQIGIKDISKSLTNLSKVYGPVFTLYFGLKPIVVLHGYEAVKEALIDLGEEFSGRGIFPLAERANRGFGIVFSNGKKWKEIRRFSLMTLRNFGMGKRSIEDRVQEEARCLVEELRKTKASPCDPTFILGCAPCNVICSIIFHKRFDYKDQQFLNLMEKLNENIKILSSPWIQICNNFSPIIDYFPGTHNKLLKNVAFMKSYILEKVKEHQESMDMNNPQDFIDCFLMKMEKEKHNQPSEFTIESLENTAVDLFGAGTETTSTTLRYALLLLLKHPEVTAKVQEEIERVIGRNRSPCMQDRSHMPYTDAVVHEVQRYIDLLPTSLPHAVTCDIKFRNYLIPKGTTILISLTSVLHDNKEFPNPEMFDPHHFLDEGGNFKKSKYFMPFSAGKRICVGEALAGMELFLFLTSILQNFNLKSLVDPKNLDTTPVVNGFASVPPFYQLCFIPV
METHOD_DESCRIPTION: Metabolic stability in presence of human recombinant CYP2C9 at 1 uM after 30 mins
Assay type: ADME
METRIC_NAME: metabolized at 0.5 h, 1 µM (%)

The measured metabolized at 0.5 h, 1 µM associated with `Cc1ccc(-c2cc(C(F)(F)F)nn2-c2ccc(S(N)(=O)=O)cc2)cc1` reads 94

The measured metabolized at 0.5 h, 1 µM associated with `Cc1ccc(-c2cc(C(=O)O)nn2-c2ccc(S(N)(=O)=O)cc2)cc1` reads 61

a. CCOC(=O)c1ccc(-n2nc(C(F)(F)F)cc2-c2ccc(C)cc2)cc1
b. O=C(O)c1ccc(-n2nc(C(F)(F)F)cc2-c2ccc(C(F)(F)F)cc2)cc1
c. Cc1ccc(-c2cc(-c3ccccc3)nn2-c2ccc(S(N)(=O)=O)cc2)cc1
d. O=C(O)Cc1ccc(-n2nc(C(F)(F)F)cc2-c2ccc(C(F)(F)F)cc2)cc1
# ascending order, key=metabolized at 0.5 h, 1 µM // format: requested-order list of labels d, b, c, a

P. Cc1ccc(-c2cc(C(F)(F)F)nn2-c2ccc(S(C)(=O)=O)cc2)cc1
Q. Cc1ccc(-c2cc(C(F)(F)F)nn2-c2ccc([S+](C)[O-])cc2)cc1 (stereo not given)
R. Cc1ccc(-c2cc(C(F)(F)F)nn2-c2ccc(C(=O)O)cc2)cc1
Arrange the 3 compounds from largest to smallest metabolized at 0.5 h, 1 µM. // format: requested-order list of labels P, Q, R
(P: 81%, Q: 48%, R: 29%)
